// Papp B→A at 2 h, 1 μM lookup, one value per entry
PROTOCOL SUMMARY: Caco-2 Permeability Assay
Type: in vitro ADME
MEASUREMENT CONTEXT: human, Caco-2, pH 7.4, basolateral to apical; read-out: Caco2 Papp (BA)

Known results for compounds:
C[C@@H](CO)n1cnc2c(-c3cccnc3)nc(-c3ccc(C(F)(F)F)cn3)cc2c1=O: > 10 ×10⁻⁶ cm/s
CC(C)(O)Cn1cnc2c(-c3cccnc3)nc(-c3ccc(C(F)(F)F)cc3)cc2c1=O: 2 to 10 ×10⁻⁶ cm/s
C[C@@H](n1cnc2c(-c3cnn(C)c3)nc(-c3ccc(Cl)cc3)cc2c1=O)C(C)(C)O: < 2 ×10⁻⁶ cm/s
C[C@H](n1cnc2c(-c3cccnc3)nc(-c3cccnc3)cc2c1=O)C(C)(C)O: > 10 ×10⁻⁶ cm/s
C[C@@H](CO)n1cnc2c(-c3cccc(F)c3)nc(-c3ccc(C(F)(F)F)cn3)cc2c1=O: < 2 ×10⁻⁶ cm/s
C[C@@H](CO)n1cnc2c(-c3cccc(F)c3)nc(-c3ccc(Cl)cc3)cc2c1=O: < 2 ×10⁻⁶ cm/s

Lookup: Requested read-out: Papp B→A at 2 h, 1 μM. Entry: "C[C@@H](CO)n1cnc2c(-c3cccnc3)nc(-c3ccc(C4CC4)nc3)cc2c1=O"
Found: > 10 ×10⁻⁶ cm/s

Lookup: Requested read-out: Papp B→A at 2 h, 1 μM. Entry: "Cn1cc(-c2nc(-c3ccc(Cl)cc3)cc3c(=O)n(CC(C)(C)O)cnc23)cn1"
Found: < 2 ×10⁻⁶ cm/s

These data points were gathered from patent US20230295152A1.
